experiment: Half life in BALB/c mouse at 3.4 mg/kg, iv measured by LC-MS/MS analysis; format: ADME, organism-based; details: in vivo
Result Type: half-life (h)
Hi! Could you send only the number? It should be in h, unit omitted.

What half-life value was documented for this compound, `CC(=O)N1CCN([C@H]2C[C@@H](n3cc(-c4cc(O)ccc4F)c4c(N)ncnc43)C2)CC1` ?
1.6

----------
assay: AUC in BALB/c mouse at 10 mg/kg, po measured by LC-MS/MS analysis; type: ADME, organism-based; parameters: dose 10 mg/kg; details: in vivo
Result Type: AUC (µM·h)
Hi! Could you send only the number? It should be in µM·h, unit omitted.

What AUC value was documented for this compound, `COC(=O)NC12CCC(n3cc(-c4cc(N)c(Cl)cc4F)c4c(N)ncnc43)(CC1)CC2` ?
160

What AUC value was documented for this compound, `CC(=O)N1CCN([C@H]2C[C@@H](n3cc(-c4ccc(Cl)c(N)c4)c4c(N)ncnc43)C2)CC1` ?
12

What AUC value was documented for this compound, `COC(=O)NC12CCC(n3cc(-c4ccc(Cl)c(N)c4)c4c(N)ncnc43)(CC1)CC2` ?
160

What AUC value was documented for this compound, `COC(=O)N[C@H]1CC[C@@H](n2cc(-c3ccc(Cl)c(N)c3)c3c(N)ncnc32)CC1` ?
120
